These measurements were taken from ChEMBL document CHEMBL1201862.

# System: ACHN
# test-details: NCI tumour cell line growth inhibition, 48 h
The source made the active and inactive calls. Cut-off read from the data, not from the text of the source: active = GI50 up to about 1.1 µM and inactive = higher.
Outcome codes: active, inactive

{"compound": "CCOc1ccc(/N=C(/NC(=O)c2ccccc2)SC)cc1", "classification": "inactive"}
{"compound": "CCC(=O)N/N=C(\\C=C\\c1cccc(O)c1)c1sc(Nc2ccc(C)cc2[N+](=O)[O-])nc1C", "classification": "inactive"}
{"compound": "O=C(NNc1cn[nH]c(=O)n1)c1cccc2nc3ccccc3nc12", "classification": "inactive"}
{"compound": "CNc1cccc(-c2cc(O)c3cc4c(cc3n2)OCO4)c1", "classification": "active"}
{"compound": "COC(=O)C(C(=O)C(=O)Nc1nnc(S)[nH]1)c1csc(N)n1 (stereo unspecified)", "classification": "inactive"}
{"compound": "CC[C@H](C)C1=C(O)[N@+]2([O-])Oc3ccc(-c4c(O)c(O)c(-c5ccc(O)cc5)c(OC(C)=O)c4OC(C)=O)cc3O[C@]2([C@@H](C)CC)C(=O)N1O", "classification": "inactive"}
{"compound": "N#CC(NNC(=O)Cc1ccccc1)c1ccc(O)cc1 (stereo unspecified)", "classification": "inactive"}
{"compound": "CCC12C=CCN3CCC4(c5cc(C6(C(=O)OC)CCCCCc7c6[nH]c6ccccc76)c(OC)cc5N(C)C4C(O)(C(=O)OC)C1OC(C)=O)C32 (stereo unspecified)", "classification": "inactive"}
{"compound": "O=C(O)C(O)C(O)C(O)C(O)c1nc2ccccc2s1 (stereo unspecified)", "classification": "inactive"}
{"compound": "Cc1nc(C)c(N2CCN(Cc3ccccc3)CC2)c(O)n1", "classification": "inactive"}
{"compound": "CCCCc1c2c(nc3c1CCC/C3=C\\c1ccccc1)/C(=C/c1ccccc1)CCC2", "classification": "inactive"}
{"compound": "CN1C(=O)N/C(=C\\c2ccc(S(=O)(=O)N/N=C/c3ccccc3)cc2)C1=O", "classification": "inactive"}
{"compound": "OCC(O)COCn1nncc1Cn1ncc2c(SCc3ccccc3)ncnc21 (stereo unspecified)", "classification": "inactive"}
{"compound": "COCCN(CCOC)C(=O)COc1c2cc(C(C)(C)C)cc1Cc1cc(C(C)(C)C)cc(c1OCC(=O)N(CCOC)CCOC)Cc1cc(C(C)(C)C)cc(c1OCC(=O)N(CCOC)CCOC)Cc1cc(C(C)(C)C)cc(c1OCC(=O)N(CCOC)CCOC)Cc1cc(C(C)(C)C)cc(c1OCC(=O)N(CCOC)CCOC)C2", "classification": "active"}
{"compound": "Cc1cc(C)nc(NS(=O)(=O)c2ccc(NC(=O)c3c4ccccc4nc4ccccc34)cc2)n1", "classification": "inactive"}
{"compound": "[N-]=[N+]=Nc1ccc(CCN2CCN(c3cccc(C(F)(F)F)c3)CC2)cc1I", "classification": "inactive"}
{"compound": "Cc1ccc(C)n2c1nc1ccc3ccccc3c12", "classification": "inactive"}
{"compound": "CCCC(=O)NC(NC1CCCCC1)(C(=O)OCC)C(F)(F)F (stereo unspecified)", "classification": "inactive"}
{"compound": "Cc1cc2nc3[nH]nc(N)c3nc2cc1C", "classification": "inactive"}
{"compound": "C=CCOc1ccccc1C1(O)c2ccccc2C2=NCCCN21 (stereo unspecified)", "classification": "inactive"}
{"compound": "COC(=O)C1CCc2c1c(=O)n1c([nH]c3ccccc31)c2C#N (stereo unspecified)", "classification": "inactive"}
